The reported numbers originate from PubChem BioAssay (NCATS).

tested on: Dd2; test: qHTS profiling for inhibitors of Plasmodium falciparum proliferation (AID 504749); also: nearly all actives have a fitted effect of over 60% in size; conditions: P. falciparum in erythrocytes, SYBR Green DNA, 72 h; series mostly up to 12.8 µM
Inconclusive results are not listed. Activity calls are given as the source filed them. Calls follow the shape of the dose curve; as a rule, active = well fitted inhibition curve with a large enough effect; inconclusive = small, poorly fitted or top-dose-only effect; inactive = flat fitted curve, though single readings scatter.
Labels: active, inactive

> print(dat)
                             smilesstructure  studytarget  category
 1              CC(=O)O[C@@H](C)C[N+](C)(C)C          Dd2  inactive
 2  CO/N=C(\C(=O)N[C@@H]1C(=O)N2C(C(=O)O)=C(COC(C)=O)CS[C@@H]12)c1csc(N)n1          Dd2  inactive
 3          CN(C)CC/C=C1\c2ccccc2CSc2ccccc21          Dd2    active
 4  COc1c(O)cc2c(c1O)[C@@H]1O[C@@H](CO)[C@@H](O)[C@@H](O)[C@@H]1OC2=O          Dd2  inactive
 5  CC[C@@]12CCCN3CCc4c(n(c5ccccc45)C(=O)C1)[C@H]32          Dd2  inactive
 6     Cn1c(=O)c2c(ncn2C[C@@H](O)CO)n(C)c1=O          Dd2  inactive
 7     CC[C@H](NC(C)C)[C@H](O)c1ccc(O)c(O)c1          Dd2  inactive
 8        N[C@@H](CO)C(=O)NNCc1ccc(O)c(O)c1O          Dd2  inactive
 9       O=C(c1ccccc1)c1ccc2n1CC[C@H]2C(=O)O          Dd2  inactive
10  CC(C)(O/N=C(\C(=O)N[C@@H]1C(=O)N2C(C(=O)[O-])=C(C[n+]3ccccc3)CS[C@@H]12)c1csc(N)n1)C(=O)O          Dd2  inactive
11  CC(=O)OCC1=C(C(=O)O)N2C(=O)[C@@H](NC(=O)CSc3ccncc3)[C@@H]2SC1          Dd2  inactive
